Recorded inhibition in vivo at 30 mg/kg for the following compounds
Tested on: Rattus norvegicus
TEST_PROTOCOL: Inhibitory activity against 4% NaCl-induced abdominal constriction in Sprague-Dawley rat after 30 min of 30 mg/kg, po
Type: functional
STATED_CONDITIONS: Abdomen, 0.5 h
QUANTITY_KIND: inhibition in vivo at 30 mg/kg (%)

>>> observed("CS(=O)(=O)c1ccc(C#CC(=O)c2ccc(O)cc2)cc1")
52.4
>>> observed("CS(=O)(=O)c1ccc(C#CC(=O)c2ccc(F)cc2)cc1")
83.8
>>> observed("COc1ccc(C(=O)C#Cc2ccc(S(C)(=O)=O)cc2)cc1")
42.7
>>> observed("CS(=O)(=O)c1ccc(C#CC(=O)c2ccc(C#N)cc2)cc1")
48.6
>>> observed("COc1cccc(C(=O)C#Cc2ccc(S(C)(=O)=O)cc2)c1")
72.6
